Molecular target: Methionine aminopeptidase 1 (Homo sapiens)
Measured IC50 by item
recorded_endpoint: IC50 (nM)

entry_smiles=Cc1nc(-c2ccc(Cl)cn2)nc(NC[C@H](NCCCCCCc2ccccc2)c2ccccc2)c1Cl recorded_endpoint=IC50 relation_operator== result_value=710
entry_smiles=Cc1nc(-c2ccc(Br)cn2)nc(NC[C@H](NC(=O)CCCN2CCNCC2)c2ccccc2)c1Cl recorded_endpoint=IC50 relation_operator== result_value=330
entry_smiles=Cc1nc(-c2ccc(Cl)cn2)nc(NC[C@H](NC(=O)CCCN2CCNCC2)c2ccccc2)c1Cl recorded_endpoint=IC50 relation_operator== result_value=36
entry_smiles=Cc1nc(-c2ccc(Cl)cn2)nc(NC[C@H](NCCCCn2cccc2)c2ccccc2)c1Cl recorded_endpoint=IC50 relation_operator== result_value=500
entry_smiles=COc1cccnc1-c1nc(C)c(Cl)c(NC[C@H](NC(=O)CCCN2CCNCC2)c2ccccc2)n1 recorded_endpoint=IC50 relation_operator== result_value=2500
entry_smiles=Cc1nc(-c2ccc(Cl)cn2)nc(NC[C@H](NCc2ccccc2)c2ccccc2)c1Cl recorded_endpoint=IC50 relation_operator== result_value=220
entry_smiles=Cc1nc(-c2ccc(Cl)cn2)nc(NC[C@H](NC(=O)CCCc2ccccc2)c2ccccc2)c1Cl recorded_endpoint=IC50 relation_operator== result_value=160
entry_smiles=Cc1nc(-c2cccnc2)nc(NCc2ccccc2)c1Cl recorded_endpoint=IC50 relation_operator=> result_value=100000
entry_smiles=Cc1nc(-c2ccc(Cl)cn2)nc(NC[C@H](NC(=O)CCc2ccccc2)c2ccccc2)c1Cl recorded_endpoint=IC50 relation_operator== result_value=93

----------
Target: UniProt P53582
Label key: 1 means IC50 under 0.4 µM; -1 means IC50 of 0.4 µM or more.

compound=Cc1nc(-c2ccc(N3CCCC3)cn2)nc(NC[C@H](NC(=O)CCCN2CCNCC2)c2ccccc2)c1Cl assigned_label=-1
compound=Cc1nc(-c2ccc(Cl)cn2)nc(NC[C@H](NC(=O)CCCCCc2ccccc2)c2ccccc2)c1Cl assigned_label=-1
compound=Cc1nc(-c2ccc(Cl)cn2)nc(NC[C@H](NCCCCc2ccc(C#N)cc2)c2ccccc2)c1Cl assigned_label=-1
compound=Cc1nc(-c2ccccn2)nc(NCCc2ccccc2)c1C assigned_label=-1
compound=Cc1nc(-c2ccc(Cl)cn2)nc(NC[C@H](NCCCc2ccccc2)c2ccccc2)c1Cl assigned_label=1
compound="Cc1nc(-c2ccc(Cl)cn2)nc(NCC(CCCCc2ccccc2)c2ccccc2)c1Cl (stereo not drawn)" assigned_label=1
compound=COc1ccnc(-c2nc(C)c(Cl)c(NC[C@H](NC(=O)CCCN3CCNCC3)c3ccccc3)n2)c1 assigned_label=-1
compound=Cc1nc(-c2ccc(Cl)cn2)nc(NC[C@H](NCCCCCc2ccccc2)c2ccccc2)c1Cl assigned_label=-1
compound=Cc1nc(-c2ccc(Cl)cn2)nc(NC[C@H](NC(=O)Cc2ccccc2)c2ccccc2)c1Cl assigned_label=-1
compound=Cc1nc(-c2ccc([N+](=O)[O-])cn2)nc(NC[C@H](NC(=O)CCCN2CCNCC2)c2ccccc2)c1Cl assigned_label=1
compound="Cc1nc(-c2ccc(Cl)cn2)nc(NCC(CCCc2ccccc2)c2ccccc2)c1Cl (stereo not drawn)" assigned_label=1
compound=Cc1nc(-c2ccc(Cl)cn2)nc(NC[C@H](NCCCCc2ccco2)c2ccccc2)c1Cl assigned_label=1
compound=Cc1nc(-c2ccc(Cl)cn2)nc(NC[C@H](NCCCCc2cccs2)c2ccccc2)c1Cl assigned_label=1
compound=Cc1nc(-c2ccc(Cl)cn2)nc(NC[C@H](NC(=O)CCCCc2ccccc2)c2ccccc2)c1Cl assigned_label=-1
compound=Cc1nc(-c2ccc(N(C)C)cn2)nc(NC[C@H](NC(=O)CCCN2CCNCC2)c2ccccc2)c1Cl assigned_label=1
compound=Cc1nc(-c2ccc(Cl)cn2)nc(NC[C@H](NCCc2ccccc2)c2ccccc2)c1Cl assigned_label=1
compound=Cc1nc(-c2ccc(Cl)cn2)nc(NC[C@H](NCCCCc2ccc(Cl)cc2)c2ccccc2)c1Cl assigned_label=-1
compound=COc1ccc(-c2nc(C)c(Cl)c(NC[C@H](NC(=O)CCCN3CCNCC3)c3ccccc3)n2)nc1 assigned_label=1

----------
Methionine aminopeptidase 2 (Homo sapiens) measurements of IC50, listed per entry.
Sequence (P50579 whole entry): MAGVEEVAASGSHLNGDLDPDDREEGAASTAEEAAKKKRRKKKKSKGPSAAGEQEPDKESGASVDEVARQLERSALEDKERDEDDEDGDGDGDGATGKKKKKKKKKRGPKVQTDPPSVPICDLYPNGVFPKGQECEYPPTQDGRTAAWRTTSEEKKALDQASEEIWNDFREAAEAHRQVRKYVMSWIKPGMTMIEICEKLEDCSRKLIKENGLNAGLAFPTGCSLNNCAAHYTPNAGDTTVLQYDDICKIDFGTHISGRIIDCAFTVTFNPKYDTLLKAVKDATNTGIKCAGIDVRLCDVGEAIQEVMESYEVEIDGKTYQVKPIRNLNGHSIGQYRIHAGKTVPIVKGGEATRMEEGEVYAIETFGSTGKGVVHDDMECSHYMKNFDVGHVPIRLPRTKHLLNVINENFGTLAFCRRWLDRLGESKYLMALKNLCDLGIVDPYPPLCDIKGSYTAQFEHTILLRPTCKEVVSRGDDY
recorded_endpoint: IC50

compound=Cc1nc(-c2ccccn2)nc(NC[C@H](NCCCCN2CCN(CCO)CC2)c2ccccc2)c1Cl result_value="197 µM"
compound=Cc1nc(-c2ccc(Cl)cn2)nc(NC[C@H](NC(=O)CCCCc2ccccc2)c2ccccc2)c1Cl result_value="> 30 µM"
compound=Cc1nc(-c2ccccn2)nc(SCc2ccccc2)c1Cl result_value="> 100 µM"
compound=Cc1nc(-c2ccc(N(C)C)cn2)nc(NC[C@H](NC(=O)CCCN2CCNCC2)c2ccccc2)c1Cl result_value="1.7 µM"
compound=COc1ccc(-c2nc(C)c(Cl)c(NC[C@H](NC(=O)CCCN3CCNCC3)c3ccccc3)n2)nc1 result_value="> 300 µM"
compound="Cc1nc(-c2ccc(Cl)cn2)nc(NCC(CCc2ccccc2)c2ccccc2)c1Cl (centres undefined)" result_value="> 200 µM"
compound=Cc1nc(-c2ccc([N+](=O)[O-])cn2)nc(NC[C@H](NC(=O)CCCN2CCNCC2)c2ccccc2)c1Cl result_value="14 µM"
compound=Cc1nc(-c2ccc(Cl)cn2)nc(NC[C@H](NCCCc2ccccc2)c2ccccc2)c1Cl result_value="> 300 µM"
compound="Cc1nc(-c2ccc(Cl)cn2)nc(NCC(CCCCc2ccccc2)c2ccccc2)c1Cl (centres undefined)" result_value="> 200 µM"

----------
Measured Ratio EC50 by item
Species: Homo sapiens
Assay: Selectivity ratio of EC50 for human recombinant GST-6XHis-tagged full-length cytosolic METAP2 to EC50 for human recombinant full-length cytosolic METAP1
recorded_endpoint: Ratio EC50

compound=CCCOc1ccc(CCCCN[C@@H](CNc2nc(-c3ccc(Cl)cn3)nc(C)c2Cl)c2ccccc2)cc1 result_value="> 250"
compound=Cc1nc(-c2ccc(F)cn2)nc(NC[C@H](NC(=O)CCCN2CCNCC2)c2ccccc2)c1Cl result_value=24
compound=Cc1nc(-c2ccc(Cl)cn2)nc(NC[C@H](NCCCCc2ccc(O)cc2)c2ccccc2)c1Cl result_value="> 714"
compound=Cc1nc(-c2ccc(Cl)cn2)nc(NC[C@H](NCCCCn2cccc2)c2ccccc2)c1Cl result_value="> 200"
compound=COc1ccc(-c2nc(C)c(Cl)c(NC[C@H](NC(=O)CCCN3CCNCC3)c3ccccc3)n2)nc1 result_value="> 1110"
compound=Cc1nc(-c2ccc(Cl)cn2)nc(NC[C@H](NCCCCc2ccco2)c2ccccc2)c1Cl result_value="> 909"
compound="Cc1nc(-c2ccc(Cl)cn2)nc(NCC(CCCCCc2ccccc2)c2ccccc2)c1Cl (racemic)" result_value="> 87"
compound=Cc1nc(-c2cccc(Cl)n2)nc(NC[C@H](NC(=O)CCCN2CCNCC2)c2ccccc2)c1Cl result_value="> 4.2"
compound=Cc1nc(-c2ncccc2Cl)nc(NC[C@H](NC(=O)CCCN2CCNCC2)c2ccccc2)c1Cl result_value="> 39"

----------
Species: Homo sapiens
Experiment: Selectivity ratio of EC50 for human recombinant GST-6XHis-tagged full-length cytosolic METAP2 to EC50 for human recombinant full-length cytosolic METAP1
Measured Ratio EC50 by item
recorded_endpoint: Ratio EC50

molecule=Cc1nc(-c2ccc(N3CCCC3)cn2)nc(NC[C@H](NC(=O)CCCN2CCNCC2)c2ccccc2)c1Cl result_value=1.1
molecule=Cc1nc(-c2ccc(Cl)cn2)nc(NC[C@H](NCCCCCCc2ccccc2)c2ccccc2)c1Cl result_value="> 42"
molecule=COc1ccnc(-c2nc(C)c(Cl)c(NC[C@H](NC(=O)CCCN3CCNCC3)c3ccccc3)n2)c1 result_value=26
molecule=Cc1nc(-c2ccc(Cl)cn2)nc(NC[C@H](NC(=O)Cc2ccccc2)c2ccccc2)c1Cl result_value=40
molecule=COc1cccc(-c2nc(C)c(Cl)c(NC[C@H](NC(=O)CCCN3CCNCC3)c3ccccc3)n2)n1 result_value="> 1.5"
molecule=Cc1nc(-c2ccc(Cl)cn2)nc(NC[C@H](NC(=O)CCCCCc2ccccc2)c2ccccc2)c1Cl result_value="> 45"
molecule=Cc1nc(-c2cc(Cl)ccn2)nc(NC[C@H](NC(=O)CCCN2CCNCC2)c2ccccc2)c1Cl result_value="> 411"
molecule=Cc1nc(-c2ccc(Cl)cn2)nc(NC[C@H](NCCc2ccccc2)c2ccccc2)c1Cl result_value="> 384"
molecule=Cc1nc(-c2ccc([N+](=O)[O-])cn2)nc(NC[C@H](NC(=O)CCCN2CCNCC2)c2ccccc2)c1Cl result_value=47
molecule=COc1cccnc1-c1nc(C)c(Cl)c(NC[C@H](NC(=O)CCCN2CCNCC2)c2ccccc2)n1 result_value="> 120"
molecule=Cc1nc(-c2ccc(Cl)cn2)nc(NC[C@H](NCCCCCc2ccccc2)c2ccccc2)c1Cl result_value="> 138"
molecule=Cc1nc(-c2ccc(Cl)cn2)nc(NC[C@H](NCc2ccccc2)c2ccccc2)c1Cl result_value=141
molecule="Cc1nc(-c2ccc(Cl)cn2)nc(NCC(CCCc2ccccc2)c2ccccc2)c1Cl (stereo not drawn)" result_value="> 1250"
molecule=Cc1nc(-c2ccc(N(C)C)cn2)nc(NC[C@H](NC(=O)CCCN2CCNCC2)c2ccccc2)c1Cl result_value=12
molecule="Cc1nc(-c2ccc(Cl)cn2)nc(NCC(CCCCc2ccccc2)c2ccccc2)c1Cl (stereo not drawn)" result_value="> 1000"
molecule=Cc1nc(-c2ccc(Cl)cn2)nc(NC[C@H](NCCCCc2ccc(Cl)cc2)c2ccccc2)c1Cl result_value="> 526"
molecule="Cc1nc(-c2ccc(Cl)cn2)nc(NCC(CCc2ccccc2)c2ccccc2)c1Cl (stereo not drawn)" result_value="> 3180"
molecule=Cc1nc(-c2ccc(Cl)cn2)nc(NC[C@H](NCCCCc2ccc(C#N)cc2)c2ccccc2)c1Cl result_value=31
